For each entry below, report its growth inhibition value.
Assay: NCI Yeast Anticancer Drug Screen. Data for the cln2 rad14 strain (AID 165);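 further: 0% = growth equal to vehicle treated cultures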
Conditions: S. cerevisiae cln2 rad14 strain, at 5.0 µM (retest, dose inferred, filed as 0.5), active compounds read high
Method: Growth inhibition of yeast strains with defined genetic alterations is measured as a screen for potential anti-cancer activity. Selected strains with alterations in DNA damage repair or cell cycle control were exposed to compounds and growth inhibition was measured relative to vehicle treated controls. The strain used in this assay is cln2 rad14
Compounds without any hit were thinned out: in the full panel of roughly 79,000, 15% have a hit.
Field format: number, assumed %, no unit text.

Please give the documented growth inhibition of CC12CCC3c4ccc(O)cc4CCC3C1CCC2S (stereo unspecified) -3

Please give the documented growth inhibition of Cc1nc2c(Br)cc(Br)cc2c(=O)n1-c1ccccc1NC1OC(CO)C(O)C(O)C1O (stereo unspecified) 11

Please give the documented growth inhibition of CCCC(C)NCCOC(=O)C(c1ccccc1)C1CCCCC1 (stereo unspecified) -2

Please give the documented growth inhibition of CN(C)/C=C1\CCc2ccc([N+](=O)[O-])cc2C1=O 31

Please give the documented growth inhibition of O=C(CC(=O)CC(O)(c1ccccc1)c1ccccc1)CC(=O)c1ccccc1 -11

Please give the documented growth inhibition of Fc1cccc(CSC(=S)Nc2ccc(F)c(F)c2)c1 -2

Please give the documented growth inhibition of CCCCN(C(=O)CCl)c1ccccc1 1

Please give the documented growth inhibition of Oc1ccc2ccccc2c1Cc1c(O)ccc2ccccc12 -25

Please give the documented growth inhibition of O=C1Nc2ccccc2C1(O)C/C(=N/O)c1ccc2ccccc2c1 (stereo unspecified) 52

Please give the documented growth inhibition of O=[N+]([O-])c1c(Cl)nc2ccccn12 2

Please give the documented growth inhibition of CCCCCCC(C(=O)OCC)N1C(=O)c2ccccc2S1(=O)=O (stereo unspecified) -3

Please give the documented growth inhibition of COc1cc(O)c2c(c1)C(=O)c1cc3c(c(O)c1C2=O)C(OC1OC(C)C(OC)C(O)C1OC)C(OC)C(C)(O)C3=O (stereo unspecified) 22

Please give the documented growth inhibition of O=C(CON1C(=O)c2ccccc2C1=O)c1ccccc1 -5

Please give the documented growth inhibition of CCc1[nH]c(=O)nc(N)c1-c1ccc(N2CCCCC2)c([N+](=O)[O-])c1 -31

Please give the documented growth inhibition of CCCCCCCCCCCCOS(=O)(=O)O 0

Please give the documented growth inhibition of Nc1nc(N)c2nc3c4ccccc4c4ccccc4c3nc2n1 1
